- Measurement description: in vitro
- Condition context: human
Metric: selectivity ratio

Query string: Give the measured selectivity ratio of COc1nc(N)ncc1-c1cn(COCCO)cn1 .
Result string: > 3

Origin of the recorded values: paper PMC4466200
